- Test system: Yersinia enterocolitica NCTC 11176
- run_description: Peptidase activity detection on Columbia agar containing substrate
- Format: cell-based
- Set-up: key: − = no fluorescence detected; e = trace of fluorescence; +/− = weak fluorescence; + = medium fluorescence; ++ = strong fluorescence; NG = No Growth
- stated_conditions: substrate 100 mg/l, 24 hours at 37° C., UV 360-365 nm
measured_parameter: fluorescence intensity

Record excerpt, results attached:
C[C@H](N)C(=O)Nc1ccccc1-c1nc2ccccc2o1 [Substrate 1] | ++
COc1cc(NC(=O)CCN)c(-c2nc3ccccc3o2)cc1OC [Substrate 11] | +/−
C[C@H](N)C(=O)Nc1ccccc1-c1nc2cc(Cl)ccc2o1 [Substrate 4] | +
C[C@H](N)C(=O)Nc1cc2c(cc1-c1nc3ccccc3n1CCc1ccccc1)OCO2 [Substrate 16] | −
C[C@H](N)C(=O)Nc1ccccc1-c1nc2ccccc2n1CCc1ccccc1 [Substrate 14] | −

Please give fluorescence intensity, item by item, for the list that follows.
1. NCCC(=O)Nc1ccccc1-c1nc2ccccc2o1 [Substrate 2]
2. NCC(=O)Nc1ccccc1-c1nc2ccccc2o1 [Substrate 3]
3. C[C@H](N)C(=O)Nc1ccccc1-c1nc2ccccc2s1 [Substrate 17]
4. NCCC(=O)Nc1ccccc1-c1nc2ccccc2s1 [Substrate 18]

Result:
1. +/−
2. +/−
3. +
4. NG

* * *

- Tested on: Enterobacter cloacae NCTC 11936
- run_description: Peptidase activity detection on Columbia agar containing substrate
- Type: cell-based
- Set-up: key: − = no fluorescence detected; e = trace of fluorescence; +/− = weak fluorescence; + = medium fluorescence; ++ = strong fluorescence; NG = No Growth
- stated_conditions: substrate 100 mg/l, 24 hours at 37° C., UV 360-365 nm
measured_parameter: fluorescence intensity

These solved cases illustrate the format of a correct answer.
NCCC(=O)Nc1ccccc1-c1nc2ccccc2o1 [Substrate 2] | +
C[C@H](N)C(=O)Nc1cc2c(cc1-c1nc3ccccc3n1CCc1ccccc1)OCO2 [Substrate 16] | ++
C[C@H](N)C(=O)Nc1ccccc1-c1nc2cc(Cl)ccc2o1 [Substrate 4] | +
COc1cc(NC(=O)CCN)c(-c2nc3ccccc3o2)cc1OC [Substrate 11] | +
C[C@H](N)C(=O)Nc1ccc(Cl)cc1-c1nc2ccccc2s1 [Substrate 19] | +

The following compounds each have a reported value; give each one's fluorescence intensity.
1. NCC(=O)Nc1ccccc1-c1nc2ccccc2o1 [Substrate 3]
2. C[C@H](N)C(=O)Nc1ccccc1-c1nc2ccccc2o1 [Substrate 1]
3. C[C@H](N)C(=O)Nc1ccccc1-c1nc2ccccc2n1CCc1ccccc1 [Substrate 14]
4. NCCC(=O)Nc1ccccc1-c1nc2ccccc2s1 [Substrate 18]
5. C[C@H](N)C(=O)Nc1ccccc1-c1nc2ccccc2s1 [Substrate 17]

Result:
++
++
+/−
NG
+

* * *

- System: Candida albicans ATCC 90028
- run_description: Peptidase activity detection on Columbia agar containing substrate
- Format: cell-based
- Set-up: key: − = no fluorescence detected; e = trace of fluorescence; +/− = weak fluorescence; + = medium fluorescence; ++ = strong fluorescence; NG = No Growth
- stated_conditions: substrate 100 mg/l, 24 hours at 37° C., UV 360-365 nm
measured_parameter: fluorescence intensity

Some compounds with known fluorescence intensity results, for comparison:
NCCC(=O)Nc1ccccc1-c1nc2ccccc2s1 [Substrate 18] | NG
COc1cc(NC(=O)CCN)c(-c2nc3ccccc3o2)cc1OC [Substrate 11] | −
C[C@H](N)C(=O)Nc1ccccc1-c1nc2cc(Cl)ccc2o1 [Substrate 4] | −
NCC(=O)Nc1ccccc1-c1nc2ccccc2o1 [Substrate 3] | NG

Please examine the following record next.
Task: Find the measured fluorescence intensity of C[C@H](N)C(=O)Nc1ccc(Cl)cc1-c1nc2ccccc2s1 [Substrate 19] and report it.
Result: NG
